Data origin, for the record: PubChem BioAssay (EPA / NIEHS)

experiment: BSK_CASM3C_Proliferation: Cell Proliferation Assessment in the BioMAP Diversity Plus: CASM3C Assay (AID 2283047); conditions: primary human coronary artery smooth muscle cells;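 note: sulforhodamine B total protein stain as relative cell number at 560 nm; sub-confluent cells exposed 48 h before staining; fitted both ways against DMSO so gain or loss of cell number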
Calls of active or inactive are those of the source. Rule for the calls: active = hit-call score of the fitted dose curve at least 0.9, where 1 is the maximum; inactive = score below 0.9.
# valid calls are active, inactive; nothing else

Reference set, count: 8
Cn1cnc2c1c(=O)[nH]c(=O)n2C    inactive
CC(C)OC(=O)C(C)(C)Oc1ccc(C(=O)c2ccc(Cl)cc2)cc1    inactive
CCCCCCC(CCCCCCCCCCC(=O)OCC(COC(C)=O)OC(C)=O)OC(C)=O (stereo not drawn)    inactive
CS(=O)(=O)c1ccc([C@@H](C[C@H]2CCC(=O)C2)C(=O)Nc2cnccn2)cc1Cl    inactive
NCCOCCOCCN    inactive
C#CC(O)C(CC)CCCC (stereo not drawn)    active
O=C(NS(=O)(=O)/C=C/c1cccs1)c1ccc(F)cc1Br    active
O=NO    inactive

Prompt: Please state the recorded outcome for this molecule: "O=C1CCCCC1"
Completion: inactive

Prompt: Please state the recorded outcome for this molecule: "CCCCCCCC(=O)OC"
Completion: inactive

Prompt: Please state the recorded outcome for this molecule: "CCCCCCC(C=O)=Cc1ccccc1"
Completion: active

Prompt: Please state the recorded outcome for this molecule: "Cc1cc(SC2=C(O)C[C@@](CCc3ccc(N)cc3)(C(C)C)OC2=O)c(C(C)(C)C)cc1CO"
Completion: inactive

Prompt: Please state the recorded outcome for this molecule: "CCc1cc(C2=C(C(=O)O)N(c3ccccc3C(F)(F)F)S(=O)(=O)c3ccccc32)cc2c1OCO2"
Completion: inactive

---

read-out: CYP2E1 (gene 1571); experiment: LTEA_HepaRG_CYP2E1: Life Technologies and Expression Analysis (LTEA) Assay for CYP2E1 using HepaRG (AID 2283485); settings: mRNA level, 48 h; actives raise or lower the signal
Activity calls are given as the source filed them. How the source made its calls: active means hit-call score of the fitted dose curve at least 0.9, where 1 is the maximum; inactive means score below 0.9.
parameter.measured: AC50

Consider the worked cases shown below.
COC(=O)CCC(=O)OC    inactive
Cc1ccc(C(C)(C)C)c(O)c1    inactive
CC(C)c1cccc(C(C)C)c1NC(=O)NS(=O)(=O)c1cc(C(C)(C)O)co1    33.9 µM (active)
CC1=C(C)S(=O)(=O)CCS1(=O)=O    inactive

Prompt: What value of AC50 has been recorded for this entry: CCCCCCC(CCCCCCCCCCC(=O)OCC(COC(C)=O)OC(C)=O)OC(C)=O (stereo unspecified)
Completion: inactive

Prompt: What value of AC50 has been recorded for this entry: "CS(=O)(=O)c1ccc([C@@H](C[C@H]2CCC(=O)C2)C(=O)Nc2cnccn2)cc1Cl"
Completion: inactive

---

read-out: Macrophage colony-stimulating factor (MCSF), CSF1 (gene 1435); experiment: BSK_LPS_MCSF: BioMAP Diversity Plus: LPS Assay for Macrophage colony-stimulating factor (MCSF) Biomarker Activity (AID 2283083); details: primary human HUVEC with PBMC; actives raise or lower the signal
Active and inactive are the calls of the source. How the source made its calls: active means hit-call score of the fitted dose curve at least 0.9, where 1 is the maximum; inactive means score below 0.9.
# valid calls are 1 for active, -1 for inactive; nothing else

NC1CCCCC1    -1
Cc1cn([C@H]2C=C[C@@H](CO)O2)c(=O)[nH]c1=O    -1
CN(C)C(=O)NC1(c2ccccc2)CCN(CC[C@@]2(c3ccc(F)c(F)c3)CN(C(=O)c3ccccc3)CCO2)CC1    -1
O=C(O)c1[nH]n(-c2ccc(S(=O)(=O)O)cc2)c(=O)c1N=Nc1ccc(S(=O)(=O)O)cc1    -1
CC(C)OC(=O)C(C)(C)Oc1ccc(C(=O)c2ccc(Cl)cc2)cc1    1

Prompt: Please state the recorded outcome for this molecule: "CC(C)(C)c1ccccc1"
Completion: -1

Prompt: Please state the recorded outcome for this molecule: Cc1c(C)c2c(c(C)c1O)CCC(C)(COc1ccc(CC3SC(=O)NC3=O)cc1)O2 (configuration not stated)
Completion: 1

---

biological target: human Matrix Metalloproteinase-2 (MMP2), MMP2 (gene 4313) (UniProt P08253); test: NVS_ENZ_hMMP2: NovaScreen (NVS) Enzymatic Assay for human Matrix Metalloproteinase-2 (MMP2) (AID 2283184)
Sequence (P08253 whole entry, looked up): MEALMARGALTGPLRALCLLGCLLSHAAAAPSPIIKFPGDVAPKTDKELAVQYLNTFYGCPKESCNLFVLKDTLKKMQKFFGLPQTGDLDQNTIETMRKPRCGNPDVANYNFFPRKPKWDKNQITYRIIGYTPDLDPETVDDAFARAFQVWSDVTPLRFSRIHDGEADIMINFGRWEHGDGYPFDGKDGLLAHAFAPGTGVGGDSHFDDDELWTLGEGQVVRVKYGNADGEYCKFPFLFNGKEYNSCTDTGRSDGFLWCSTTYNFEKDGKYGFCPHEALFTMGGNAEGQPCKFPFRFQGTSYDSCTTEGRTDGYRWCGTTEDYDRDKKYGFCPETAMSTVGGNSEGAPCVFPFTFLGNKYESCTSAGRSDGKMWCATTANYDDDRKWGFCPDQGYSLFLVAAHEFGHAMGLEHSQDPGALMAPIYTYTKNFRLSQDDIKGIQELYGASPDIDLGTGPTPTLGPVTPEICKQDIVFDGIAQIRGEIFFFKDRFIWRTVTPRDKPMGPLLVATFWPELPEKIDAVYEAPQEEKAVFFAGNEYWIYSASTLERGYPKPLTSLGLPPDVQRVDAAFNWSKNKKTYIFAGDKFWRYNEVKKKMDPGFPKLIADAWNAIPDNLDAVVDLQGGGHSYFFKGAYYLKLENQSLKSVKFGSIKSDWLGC
Results filed as inconclusive are left out. Active and inactive are the calls of the source. The calls were made as follows: active = hit-call score of the fitted dose curve at least 0.9, where 1 is the maximum; inconclusive = response in the unintended direction; inactive = score below 0.9.
# valid calls are active, inactive; nothing else

Nc1nc(=S)c2[nH]cnc2[nH]1    active
O=C1c2c(O)cccc2Cc2cccc(O)c21    active
Cn1cnc2c1c(=O)[nH]c(=O)n2C    inactive
c1ccc2occc2c1    inactive

Here's the next entry for you.
Prompt: Please state the recorded outcome for this molecule: "Cc1ccc(-c2cc(C(F)(F)F)nn2-c2ccc(S(N)(=O)=O)cc2)cc1"
Completion: inactive

---

read-out: Interferon-gamma inducible Protein 10 (IP10), CXCL10 (gene 3627); test: BSK_hDFCGF_IP10: BioMAP Diversity Plus: hDFCGF Assay for Interferon-gamma inducible Protein 10 (IP10) Biomarker Activity (AID 2283053); details: primary human foreskin fibroblasts; actives raise or lower the signal
Active and inactive are the calls of the source. How the source made its calls: active means hit-call score of the fitted dose curve at least 0.9, where 1 is the maximum; inactive means score below 0.9.
# valid calls are active, inactive; nothing else

CC(=O)OC1CC(C)OC(C)O1 (stereo not given)    inactive
O=C(Oc1ccccc1)c1cccc(C(=O)Oc2ccccc2)c1    inactive
CO[C@@H]1COCC[C@@H]1N[C@@H]1CC[C@@](C(=O)N2CCc3ncc(C(F)(F)F)cc3C2)(C(C)C)C1    inactive
NCCOCCOCCN    inactive
CCCCCCCC(=O)OC    inactive

Prompt: Please state the recorded outcome for this compound: "O=NO"
Completion: inactive

Prompt: Please state the recorded outcome for this compound: "CCOCCOCCO"
Completion: inactive

Prompt: Please state the recorded outcome for this compound: "CCCCCCCCCC[N+](C)(C)[O-]"
Completion: inactive

Prompt: Please state the recorded outcome for this compound: "CCCC[C@H]1CN(CC2CCOCC2)C(=O)OC12CCN(C1(C)CCN(C(=O)c3c(C)ncnc3C)CC1)CC2"
Completion: inactive

Prompt: Please state the recorded outcome for this compound: "CC(C)(O)c1ccc(CNC(=O)c2cccnc2Oc2ccc(F)cc2)cc1"
Completion: inactive

Prompt: Please state the recorded outcome for this compound: "CC(=O)OCC(COC(C)=O)OC(C)=O"
Completion: inactive

---

assay: BSK_SAg_PBMCCytotoxicity: PBMC Cytotoxicity Assessment in the BioMAP Diversity Plus: SAg Assay (AID 2283093); conditions: primary human HUVEC with PBMC;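 note: PBMC viability measured as Alamar Blue reduction fluorescence at 546/580 nm; fitted both ways against DMSO so a hit may be loss or gain of signal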
Activity calls are given as the source filed them. Rule for the calls: active = hit-call score of the fitted dose curve at least 0.9, where 1 is the maximum; inactive = score below 0.9.
# valid calls are label 1 = active, label 0 = inactive; nothing else

Reference set, count: 2
CCCCCCCC(=O)OC    label 0
CCCCC(CC)COP(=O)(OCC(CC)CCCC)OCC(CC)CCCC (centres undefined)    label 1

Prompt: Please state the recorded outcome for this molecule: "CC1=C(C)S(=O)(=O)CCS1(=O)=O"
Completion: label 0

Prompt: Please state the recorded outcome for this molecule: "O=[Si]=O"
Completion: label 0

Prompt: Please state the recorded outcome for this molecule: "C/C=C/C=C/C(=O)O"
Completion: label 0

---

read-out: CD40, CD40 (gene 958); assay: BSK_LPS_CD40: BioMAP Diversity Plus: LPS Assay for CD40 Biomarker Activity (AID 2283076); settings: primary human HUVEC with PBMC; actives raise or lower the signal
Active and inactive are the calls of the source. The calls were made as follows: active = hit-call score of the fitted dose curve at least 0.9, where 1 is the maximum; inactive = score below 0.9.
# valid calls are active, inactive; nothing else

Reference set, count: 4
CCCCCCCCCCCCCCOS(=O)(=O)O    inactive
CC1(C)C(=O)NC(=O)N1CO    inactive
CC(=O)CC(c1ccccc1)c1c(O)c2ccccc2oc1=O (stereo unspecified)    inactive
CCN(CC)CCOc1ccc(C(=C(Cl)c2ccccc2)c2ccccc2)cc1    active

Prompt: Please state the recorded outcome for this molecule: "O=C1c2c(O)cccc2Cc2cccc(O)c21"
Completion: inactive

Prompt: Please state the recorded outcome for this molecule: "CC(=O)[C@@]1(O)CC[C@H]2[C@@H]3CCC4=CC(=O)CC[C@]4(C)[C@H]3CC[C@@]21C"
Completion: inactive

Prompt: Please state the recorded outcome for this molecule: "C=CCc1ccc(OC)c(OC)c1"
Completion: inactive

Prompt: Please state the recorded outcome for this molecule: "COC(=O)CCC(=O)OC"
Completion: inactive

Prompt: Please state the recorded outcome for this molecule: "Cc1cc(Cc2ccc(N)c(C)c2)ccc1N"
Completion: inactive

Prompt: Please state the recorded outcome for this molecule: CC(COCC(C)OC(=O)c1ccccc1)OC(=O)c1ccccc1 (stereo unspecified)
Completion: inactive

---

assay: ATG_ERE_CIS: Attagene CIS-FACTORIAL HepG2 Assay for Estrogen Response Element (ERE) (AID 2282940); settings: HepG2 ERE cis-reporter, Attagene RNA transcript; actives raise or lower the signal
Calls of active or inactive are those of the source. Rule for the calls: active = hit-call score of the fitted dose curve at least 0.9, where 1 is the maximum; inactive = score below 0.9.
# valid calls are active, inactive; nothing else

Reference set, count: 3
CCCCCCCCCCCCCCCCO    inactive
CCCCCCCCCC[N+](C)(C)[O-]    inactive
COc1ccc(OC(F)(F)F)cc1CN[C@H]1CCCN[C@H]1c1ccccc1    inactive

Prompt: Please state the recorded outcome for this compound: "CCc1nc(N)nc(N)c1-c1ccc(Cl)cc1"
Completion: inactive

Prompt: Please state the recorded outcome for this compound: "COc1ccc(C(=O)Nc2nc3ccccc3c(NCc3ccccc3)c2C#N)cc1"
Completion: active
